- System tested: T1, canine NGF tagged at the C-terminus with the Flag tag (canine, UniProt A0A8I3PYI3 122-241)
- T1 construct: mature; Expressed with baculovirus technology; also called feline NGF (processed form identical)
- T1 sequence (A0A8I3PYI3 entry or part of it): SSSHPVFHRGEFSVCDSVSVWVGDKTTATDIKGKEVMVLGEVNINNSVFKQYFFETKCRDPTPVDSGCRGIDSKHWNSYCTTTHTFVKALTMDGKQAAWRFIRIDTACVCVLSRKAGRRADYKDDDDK
- Assay procedure: SPR off-rate assay, Fab-SASA on BSA chip
Quick reference for Ratio (KD) WT/clones among some binders

Reference set, count: 2
Binder: AHF17598 (Fab, V domains shown, not shown: small tags and cut ends) VH: DVQLVESGGDLVKPGGSLRLTCVASGLSLTSSSMVWVRQAPGKGLQWVSTIYSNRGTYYTDSVKGRFTISKDNAENTLYLQMNNLKTEDTATYYCASIYYYDADYLHWYFDEWGQGALVTVSS VL: EIQMTQSPTSLSASVGDRVTITCRASEGIANNLSWYQQTPGKAPKLLIYATSILHSGVPSRFSGSGSGTDFTLTISSLQPEDFATYYCQQGYKWPLTFGGGTKLEITR
Ratio (KD) WT/clones: 19.3
//
Binder: AHF17602 (Fab-SASA) (Fab, V domains shown, not shown: small tags and cut ends) VH: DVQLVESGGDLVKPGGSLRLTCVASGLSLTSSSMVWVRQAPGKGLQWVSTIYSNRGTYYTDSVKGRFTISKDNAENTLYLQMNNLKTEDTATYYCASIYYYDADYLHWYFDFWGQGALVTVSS VL: EIQMTQSPTSLSASVGDRVTITCRASEGIANNLSWYQQTPGKAPKLLIYATSNLHSGVPSRFSGSGSGTDFTLTISSLQPEDFATYYCQQGYKWPLTFGGGTKLEITR
Ratio (KD) WT/clones: 726

## Input Could you please provide reported Ratio (KD) WT/clones for AHF17604 (Fab, V domains shown, not shown: small tags and cut ends, Fab-SASA, combinatorial library) VH: DVQLVESGGDLVKPGGSLRLTCVASGLSLTSSSMVWVRQAPGKGLQWVSTIYSNRGTYYTDSVKGRFTISKDNAENTLYLQMNNLKTEDTATYYCAQIYYYDADYLHWYFDFWGQGALVTVSS VL: EIQMTQSPTSLSASVGDRVTITCRASEGIQNNLSWYQQTPGKAPKLLIYATSILHSGVPSRFSGSGSGTDFTLTISSLQPEDFATYYCQQGYKWPLTFGGGTKLEITR ? Thanks!
## Output 10.8
